Tested on: U2OS
experiment.summary: Multiplex assay against U2OS
Assay type: toxicity, cell-based
condition.set: human, 48 h, 1 µM, compound concentration 1 uM, replicate 2
Listing of recorded Population Fragmented Nuclei (%) by entry.
Output spec: scalar in %, unitless text.

- molecule: "C[C@@H]1C[C@H]2[C@@H]3CCC4=CC(=O)C=C[C@]4(C)[C@@]3(F)[C@@H](O)C[C@]2(C)[C@@]1(O)C(=O)CO"
  test.target: "U2OS"
  value.type: "Population Fragmented Nuclei (%)"
  assay.value: 17
- molecule: "Oc1c(CN2CCN(c3ccccn3)CC2)cc(Cl)c2cccnc12"
  test.target: "U2OS"
  value.type: "Population Fragmented Nuclei (%)"
  assay.value: 14
- molecule: "CCCN1CCC[C@@H]2Cc3n[nH]cc3C[C@H]21.Cl [QUINPIROLE HYDROCHLORIDE]"
  test.target: "U2OS"
  value.type: "Population Fragmented Nuclei (%)"
  assay.value: 17
- molecule: "COc1cc(NC(=O)CCN2CCC(OC(=O)Nc3ccccc3-c3ccccc3)CC2)c(Cl)cc1CNC[C@H](O)c1ccc(O)c2[nH]c(=O)ccc12"
  test.target: "U2OS"
  value.type: "Population Fragmented Nuclei (%)"
  assay.value: 17
- molecule: "Cc1ccc(C(C)(O)c2nc3ccccc3s2)c(C)c1 (stereo not drawn)"
  test.target: "U2OS"
  value.type: "Population Fragmented Nuclei (%)"
  assay.value: 15
- molecule: "O=C1COc2nccc(-c3ccccc3F)c2CN1Cc1cc(C(F)(F)F)cc(C(F)(F)F)c1"
  test.target: "U2OS"
  value.type: "Population Fragmented Nuclei (%)"
  assay.value: 19

Which measured Population Fragmented Nuclei (%) value corresponds to N#Cc1c(N)nc(SCc2csc(-c3ccc(Cl)cc3)n2)c(C#N)c1-c1ccc(OCCO)cc1 ?
12

Now the molecule CN1CCN(c2nc3cc(C(F)(F)F)ccc3n3cccc23)CC1.O=C(O)/C=C\C(=O)O.O=C(O)/C=C\C(=O)O
17

----------
Test system: HEK-293T
experiment.summary: Multiplex assay against HEK293T
Format: toxicity, cell-based
condition.set: human, 24 h, 10 µM, compound concentration 10 uM, replicate 1
API: label(entry) gives YES if the entry's Total Cell Count is strictly smaller than 500; on equality or larger values it gives NO.

Some entries whose results are on file:
- mol: "Cc1ccc(-c2ccc(F)cc2COc2ccc(CCC(=O)O)cc2)cc1"
  test.target: "HEK-293T"
  qualitative.label: "YES"
- mol: "c1cc(OCCCN2CCCCC2)ccc1CN1CCCCC1"
  test.target: "HEK-293T"
  qualitative.label: "YES"
- mol: "O=C(O)c1cc2ccccc2c(Cc2c(O)c(C(=O)O)cc3ccccc23)c1O"
  test.target: "HEK-293T"
  qualitative.label: "NO"

Please examine the following record next.
Regarding CCCC(CCC)C(=O)O , kindly confirm whether its Total Cell Count is beneath 500.
NO

----------
Tested on: Fibroblast
experiment.summary: Multiplex assay against human fibroblast
Format: toxicity, cell-based
condition.set: 48 h, 10 µM, compound concentration 10 uM, replicate 2
Mark YES for reported Population Healthy Nuclei (%) of 50% or greater; mark NO for anything smaller.

Some entries whose results are on file:
- compound: "O=C(O)c1cc2ccccc2c(Cc2c(O)c(C(=O)O)cc3ccccc23)c1O"
  qualitative.label: "YES"
- compound: "CN1CCN2c3ncccc3Cc3ccccc3C2C1 (stereo not drawn)"
  qualitative.label: "NO"
- compound: "C[C@H]1[C@H]2CC[C@H]3[C@@H]4CC=C5C[C@@H](N(C)C)CC[C@]5(C)[C@H]4CC[C@]23CN1C"
  qualitative.label: "NO"
- compound: "Cc1ccc(/C(=C\\CN2CCCC2)c2ccccn2)cc1"
  qualitative.label: "YES"
- compound: "C[C@@H]1C[C@H]2[C@@H]3CCC4=CC(=O)C=C[C@]4(C)[C@@]3(F)[C@@H](O)C[C@]2(C)[C@@]1(O)C(=O)CO"
  qualitative.label: "NO"
- compound: "Cc1ccccc1C(=O)Nc1ccc(C(=O)N2CCCC(N(C)C)c3ccccc32)cc1.Cl (stereo not drawn)"
  qualitative.label: "NO"
- compound: "Cl.Clc1ccc2nsnc2c1NC1=NCCN1 [TIZANIDINE HYDROCHLORIDE]"
  qualitative.label: "NO"

Please check the record CC[C@H]1OC(=O)[C@H](C)[C@@H](O[C@H]2C[C@@](C)(OC)[C@@H](O)[C@H](C)O2)[C@H](C)[C@@H](O[C@@H]2O[C@H](C)C[C@H](N(C)C)[C@H]2O)[C@@]2(C)CC(C)=C(O2)[C@H](C)[C@@H](O)[C@]1(C)O and state if its Population Healthy Nuclei (%) is at or above 50%.
NO

----------
Test system: Fibroblast
experiment.summary: Multiplex assay against human fibroblast
Format: toxicity, cell-based
condition.set: 24 h, 1 µM, compound concentration 1 uM, replicate 2
value.type: Population Apoptotic (%)
Output spec: scalar in %, unitless text.

Examples with their reported Population Apoptotic (%) follow.
- compound: "CN(C)CCCc1cc(C(=O)Nc2ccc(-c3ccncc3)cc2)ccc1O.Cl.Cl"
  Population Apoptotic (%): 37
- compound: "Cc1ccc(C(C)(O)c2nc3ccccc3s2)c(C)c1 (centres undefined)"
  Population Apoptotic (%): 47
- compound: "CNC[C@H](O)c1ccc(O)c(O)c1 [EPINEPHRINE]"
  Population Apoptotic (%): 23
- compound: "CSc1ccccc1N1CCN(CCCCCC(=O)NC2CCCc3ccccc32)CC1.Cl (centres undefined)"
  Population Apoptotic (%): 37
- compound: "CN1CCN2c3ncccc3Cc3ccccc3C2C1 (centres undefined)"
  Population Apoptotic (%): 48
- compound: "O=C(NCC(=O)N1CC[C@H](N[C@H]2CC[C@@](O)(c3ccc(-c4ncccn4)cn3)CC2)C1)c1cccc(C(F)(F)F)c1"
  Population Apoptotic (%): 45
- compound: "C[C@@H]1C[C@H]2[C@@H]3CCC4=CC(=O)C=C[C@]4(C)[C@@]3(F)[C@@H](O)C[C@]2(C)[C@@]1(O)C(=O)CO"
  Population Apoptotic (%): 31
- compound: "N#Cc1c(N)nc(SCc2csc(-c3ccc(Cl)cc3)n2)c(C#N)c1-c1ccc(OCCO)cc1"
  Population Apoptotic (%): 48
- compound: "Cc1ccc(F)cc1C(=O)Nc1ccc(C(=O)N2Cc3cccn3Cc3ccccc32)c(Cl)c1"
  Population Apoptotic (%): 32
- compound: "CN(C)c1ccnc2sc3c(=O)n(N4CCCCCC4)cnc3c12"
  Population Apoptotic (%): 50

Which measured Population Apoptotic (%) value corresponds to COc1c(C)cc(NC(=O)c2nn(Cc3ccc(F)cc3)c3c2CN(C(=O)c2ccc[nH]2)C[C@]3(C)C(N)=O)cc1C ?
48

Now the compound CC[C@H]1OC(=O)[C@H](C)[C@@H](O[C@H]2C[C@@](C)(OC)[C@@H](O)[C@H](C)O2)[C@H](C)[C@@H](O[C@@H]2O[C@H](C)C[C@H](N(C)C)[C@H]2O)[C@@]2(C)CC(C)=C(O2)[C@H](C)[C@@H](O)[C@]1(C)O
46

----------
System: HEK-293T
experiment.summary: Multiplex assay against HEK293T
Type: toxicity, cell-based
condition.set: human, 48 h, 1 µM, compound concentration 1 uM, replicate 2
value.type: Population Apoptotic (%)
Output spec: scalar in %, unitless text.

Examples with their reported Population Apoptotic (%) follow.
- compound: "O=C1COc2nccc(-c3ccccc3F)c2CN1Cc1cc(C(F)(F)F)cc(C(F)(F)F)c1"
  assay.value: 38
- compound: "Oc1c(CN2CCN(c3ccccn3)CC2)cc(Cl)c2cccnc12"
  assay.value: 31

Which measured Population Apoptotic (%) value corresponds to Cl.Clc1ccc2nsnc2c1NC1=NCCN1 [TIZANIDINE HYDROCHLORIDE] ?
33

Now the compound C[C@H]1[C@H]2CC[C@H]3[C@@H]4CC=C5C[C@@H](N(C)C)CC[C@]5(C)[C@H]4CC[C@]23CN1C [CONESSINE]
36

Now the compound CN(C)CCCc1cc(C(=O)Nc2ccc(-c3ccncc3)cc2)ccc1O.Cl.Cl
21

Now the compound COc1cc(NC(=O)CCN2CCC(OC(=O)Nc3ccccc3-c3ccccc3)CC2)c(Cl)cc1CNC[C@H](O)c1ccc(O)c2[nH]c(=O)ccc12 [BATEFENTEROL]
51

Now the compound O=S(=O)(c1ccccc1)c1cnc2c(N3CCNCC3)cccc2c1 [INTEPIRDINE]
25

Now the compound CC(=O)NCCc1c(Cc2ccccc2)[nH]c2ccccc12 [LUZINDOLE]
46

----------
System: Fibroblast
experiment.summary: Multiplex assay against human fibroblast
Format: toxicity, cell-based
condition.set: 24 h, 10 µM, compound concentration 10 uM, replicate 1
value.type: Population Apoptotic (%)
Don't forget the unit after the value.

Examples with their reported Population Apoptotic (%) follow.
- compound: "CCNC1(C(N)=O)CCN(c2ncnc3c2nc(-c2ccccc2Cl)n3-c2ccc(Cl)cc2)CC1 [OTENABANT]"
  test.target: "Fibroblast"
  Population Apoptotic (%): "54%"
- compound: "CN(C)c1ccnc2sc3c(=O)n(N4CCCCCC4)cnc3c12"
  test.target: "Fibroblast"
  Population Apoptotic (%): "57%"
- compound: "CSc1ccccc1N1CCN(CCCCCC(=O)NC2CCCc3ccccc32)CC1.Cl (stereo not given)"
  test.target: "Fibroblast"
  Population Apoptotic (%): "90%"
- compound: "Oc1c(CN2CCN(c3ccccn3)CC2)cc(Cl)c2cccnc12"
  test.target: "Fibroblast"
  Population Apoptotic (%): "89%"

Item CN1CCN(c2nc3cc(C(F)(F)F)ccc3n3cccc23)CC1.O=C(O)/C=C\C(=O)O.O=C(O)/C=C\C(=O)O with Fibroblast - Population Apoptotic (%)?
77%
